self-cleavage kobs at 2500 uM GlcN6P values, listed per item
B1: glmS ribozyme (parent)
chain: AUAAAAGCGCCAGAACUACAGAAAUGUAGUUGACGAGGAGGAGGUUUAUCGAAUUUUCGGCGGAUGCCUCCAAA

- Variants of: B1
- Assay Info: self-cleavage kobs at 2500 uM GlcN6P; higher = faster cleavage; RNA array
- Condition Label: with glucosamine-6-phosphate
This sample holds only a part of the variants without activity.
Report only the number, with the unit s⁻¹ understood.

Before answering, review these 10 worked examples.
INSERT INTO assay_data (variant_annotation, measure_name, units, numeric_result) VALUES
  ('A14U U55G', 'self-cleavage kobs at 2500 uM GlcN6P', 's⁻¹', 0.0041),
  ('A42U C68U', 'self-cleavage kobs at 2500 uM GlcN6P', 's⁻¹', 0.000254),
  ('U31A G32U U45G', 'self-cleavage kobs at 2500 uM GlcN6P', 's⁻¹', 0.000148),
  ('U45C U46A', 'self-cleavage kobs at 2500 uM GlcN6P', 's⁻¹', '4.42e-05'),
  ('C11U C58A', 'self-cleavage kobs at 2500 uM GlcN6P', 's⁻¹', '4.48e-05'),
  ('A6U U56G', 'self-cleavage kobs at 2500 uM GlcN6P', 's⁻¹', '9.43e-05'),
  ('A12U U31G U69A', 'self-cleavage kobs at 2500 uM GlcN6P', 's⁻¹', 0.000111),
  ('A53G G66U', 'self-cleavage kobs at 2500 uM GlcN6P', 's⁻¹', 0.00179),
  ('A39U U47C U56A', 'self-cleavage kobs at 2500 uM GlcN6P', 's⁻¹', 0.00121),
  ('A39U G41U', 'self-cleavage kobs at 2500 uM GlcN6P', 's⁻¹', 0.000402);

Proceed to the following item.
Q) Please give the measured self-cleavage kobs at 2500 uM GlcN6P for this variant: U31A G66U
A) 0.000466
